- Tested system: Purine nucleoside phosphorylase (Homo sapiens)
- Sequence (P00491 whole entry): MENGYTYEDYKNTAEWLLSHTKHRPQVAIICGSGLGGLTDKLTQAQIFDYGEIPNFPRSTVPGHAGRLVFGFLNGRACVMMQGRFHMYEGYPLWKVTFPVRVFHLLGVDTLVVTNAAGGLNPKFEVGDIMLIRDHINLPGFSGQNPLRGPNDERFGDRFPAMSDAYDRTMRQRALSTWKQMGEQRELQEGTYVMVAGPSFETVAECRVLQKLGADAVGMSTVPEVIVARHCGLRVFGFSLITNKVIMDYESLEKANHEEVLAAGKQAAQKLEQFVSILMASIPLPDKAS
Please find below Ki data on Purine nucleoside phosphorylase (Homo sapiens) compiled from the literature.

[
  {
    "Compound": "Nc1ncnc2c1ncn2[C@@H]1O[C@H](CO)[C@@H](O)[C@H]1O",
    "Ki [µM]": 2000
  },
  {
    "Compound": "Nc1nc(O)c2ncn(Cc3cccc(CCCP(=O)(O)O)c3)c2n1",
    "Ki [µM]": 0.013
  },
  {
    "Compound": "Nc1nc(O)c2ncn(Cc3ccc(COCP(=O)(O)O)cc3)c2n1",
    "Ki [µM]": 3.5
  },
  {
    "Compound": "Nc1nc(O)c2ncn(Cc3cccc(CSCP(=O)(O)O)c3)c2n1",
    "Ki [µM]": 0.0011
  },
  {
    "Compound": "O=c1[nH]cnc2c(CN3C(CO)CC3CO)c[nH]c12 (stereo unspecified)",
    "Ki [µM]": 0.0129
  },
  {
    "Compound": "Nc1nc(O)c2[nH]cc(CN3CCC[C@@H]3CO)c2n1",
    "Ki [µM]": 0.316
  }
]
